Measured values drawn from ChEMBL document CHEMBL1140648 for this set.

tested on: Staphylococcus aureus; assay: Antibacterial activity against Staphylococcus aureus UC9218; assay type: functional
READOUT LABEL: MIC

Some solved cases for reference:
{"columns": ["COMPOUND", "MIC"],
 "data": [
  ["CN(c1ccc(Cl)cc1)S(=O)(=O)c1ccc(C(=O)Nc2ccc(Br)cc2C#N)cc1", "> 128 µg/mL"],
  ["CN(c1ccc(Cl)cc1)S(=O)(=O)c1ccc(C(=O)Nc2ccc(Br)cc2-c2n[nH]c(=O)o2)cc1", "2 µg/mL"],
  ["CONC(=O)c1cc(Br)ccc1NC(=O)c1ccc(S(=O)(=O)N(C)c2ccc(Cl)cc2)cc1", "> 128 µg/mL"],
  ["CN(c1ccc(Cl)cc1)S(=O)(=O)c1ccc(C(=O)Nc2ccc(Br)cc2[N+](=O)[O-])cc1", "> 128 µg/mL"],
  ["CN(c1ccc(Cl)cc1)S(=O)(=O)c1ccc(C(=O)Nc2ccc(Br)cc2C(N)=O)cc1", "> 128 µg/mL"],
  ["CN(c1ccc(Cl)cc1)S(=O)(=O)c1ccc(C(=O)Nc2ccc(Br)cc2-c2nnn[nH]2)cc1", "16 µg/mL"]
]}

Request the reported MIC associated with `CN(c1ccc(Cl)cc1)S(=O)(=O)c1ccc(C(=O)Nc2ccc(Br)cc2NS(C)(=O)=O)cc1`
> 128 µg/mL

Record: CC(O)c1cc(Br)ccc1NC(=O)c1ccc(S(=O)(=O)N(C)c2ccc(Cl)cc2)cc1 (stereo not drawn)
> 128 µg/mL

* * *

system: Staphylococcus aureus; assay: Antibacterial activity against Staphylococcus aureus UC9218; assay type: functional
READOUT LABEL: MIC (µg/mL)

(a) CN(c1ccc(Cl)cc1)S(=O)(=O)c1ccc(C(=O)Nc2ccc(Br)cc2C(=O)O)cc1
(b) CN(c1ccc(Cl)cc1)S(=O)(=O)c1ccc(C(=O)Nc2ccc(Br)cc2NS(=O)(=O)C(F)(F)F)cc1
Identify the item whose MIC is the smaller number: a or b State the label of the item chosen.
a

* * *

Catalogue of molecules with associated inhibition at 100 µM
system: Staphylococcus aureus; assay: Inhibition of transcription/translation in Staphylococcus aureus at 100 uM; format: functional
Write the number in % without appending the unit.

{"columns": ["MOLECULE SMILES", "DISPLAY UNIT", "inhibition at 100 µM"],
 "data": [
  ["CN(c1ccc(Cl)cc1)S(=O)(=O)c1ccc(C(=O)Nc2ccc(Br)cc2-c2nnn[nH]2)cc1", "%", 96]
]}

Value lookup for inhibition at 100 µM; key = `CN(c1ccc(Cl)cc1)S(=O)(=O)c1ccc(C(=O)Nc2ccc(Br)cc2[N+](=O)[O-])cc1`
0

Then what about the molecule `CN(c1ccc(Cl)cc1)S(=O)(=O)c1ccc(C(=O)Nc2ccc(Br)cc2C(O)(C(F)(F)F)C(F)(F)F)cc1` ?
41

Next molecule up: `CN(c1ccc(Cl)cc1)S(=O)(=O)c1ccc(C(=O)Nc2ccc(Br)cc2-c2n[nH]c(=O)o2)cc1`
60

* * *

test system: Staphylococcus aureus; assay: Antibacterial activity against Staphylococcus aureus UC9218 in presence of 10% HSA; type: functional
READOUT LABEL: MIC

# annotated cases, reported MIC shown
{"columns": ["MOLECULE", "MIC"],
 "data": [
  ["CN(c1ccc(Cl)cc1)S(=O)(=O)c1ccc(C(=O)Nc2ccc(Br)cc2-c2n[nH]c(=O)o2)cc1", "> 128 µg/mL"],
  ["CN(c1ccc(Cl)cc1)S(=O)(=O)c1ccc(C(=O)Nc2ccc(Br)cc2C(O)(C(F)(F)F)C(F)(F)F)cc1", "> 128 µg/mL"],
  ["CN(c1ccc(Cl)cc1)S(=O)(=O)c1ccc(C(=O)Nc2ccc(Br)cc2-c2noc(=O)[nH]2)cc1", "> 128 µg/mL"],
  ["CO[C@@H]1[C@@H](OC(N)=O)[C@@H](O)[C@H](Oc2ccc3c(O)c(NC(=O)c4ccc(O)c(CC=C(C)C)c4)c(=O)oc3c2C)OC1(C)C [NOVOBIOCIN]", "1 µg/mL"]
]}

Let us examine a further case.
Test system Staphylococcus aureus; read-out MIC; what value for `CN(c1ccc(Cl)cc1)S(=O)(=O)c1ccc(C(=O)Nc2ccc(Br)cc2C(=O)O)cc1` ?
> 128 µg/mL

* * *

test system: Staphylococcus aureus; assay: Inhibition of transcription/translation in Staphylococcus aureus at 100 uM; format: functional
Form field: inhibition at 100 µM (one value per entry).
State the answer as a number, implicitly in %.

Some entries whose results are on file:
{"columns": ["MOLECULE SMILES", "inhibition at 100 µM, %"],
 "data": [
  ["CN(c1ccc(Cl)cc1)S(=O)(=O)c1ccc(C(=O)Nc2ccc(Br)cc2Br)cc1", 6],
  ["CN(c1ccc(Cl)cc1)S(=O)(=O)c1ccc(C(=O)Nc2ccc(Br)cc2NS(=O)(=O)C(F)(F)F)cc1", 72],
  ["CN(c1ccc(Cl)cc1)S(=O)(=O)c1ccc(C(=O)Nc2ccc(Br)cc2)cc1", 11],
  ["CN(c1ccc(Cl)cc1)S(=O)(=O)c1ccc(C(=O)Nc2ccc(Br)cc2C(N)=O)cc1", 13]
]}

# input compound: `CN(c1ccc(Cl)cc1)S(=O)(=O)c1ccc(C(=O)Nc2ccc(Br)cc2C#N)cc1` ; wanted: its inhibition at 100 µM
0

Now give it for `CC(=O)c1cc(Br)ccc1NC(=O)c1ccc(S(=O)(=O)N(C)c2ccc(Cl)cc2)cc1` too.
0

* * *

system: Staphylococcus aureus; test: Antibacterial activity against Staphylococcus aureus UC9218; type: functional
As shown below, each of these compounds has a reported MIC value.

Worked cases, MIC given:
{"columns": ["MOLECULE SMILES", "MIC"],
 "data": [
  ["CO[C@@H]1[C@@H](OC(N)=O)[C@@H](O)[C@H](Oc2ccc3c(O)c(NC(=O)c4ccc(O)c(CC=C(C)C)c4)c(=O)oc3c2C)OC1(C)C", "> 0.125 µg/mL"],
  ["CN(c1ccc(Cl)cc1)S(=O)(=O)c1ccc(C(=O)Nc2ccc(Br)cc2-c2noc(=O)[nH]2)cc1", "8 µg/mL"]
]}

Now let's try a different one.
MIC for `CN(c1ccc(Cl)cc1)S(=O)(=O)c1ccc(C(=O)Nc2ccc(Br)cc2CO)cc1` ?
> 128 µg/mL
